The measured values listed here are drawn from PubChem BioAssay (NCI).

tested on: U251 CNS; assay: NCI-60 one-dose screen, 48 h (100 = growth as untreated, 0 = no growth, -100 = all killed); details: 10 µM unless noted
About 83,000 compounds went through this panel and 20% of them were active in at least one assay; those are over-represented in the sample as a whole.
measured_property: growth (%)

compound	measured_property	result_unit	observed_value
CCOC(=O)CC(=O)OC	growth	%	101
CC(C)(C)n1cc(-c2ccnc(NCCCNS(=O)(=O)c3ccccc3)c2)c(-c2cccc(O)c2)n1	growth	%	48.5
COC(=O)c1cccc2c1N(C)c1c(cccc1C(=O)OC)CC2	growth	%	111
C=C1CC2(OC1=O)C(=O)N(CCCN1C(=O)C3(CC(=C)C(=O)O3)c3ccccc31)c1ccccc12 (configuration not stated)	growth	%	45.4
NC1N=C(SCC(=O)N2CCN(c3cc4c(cc3F)c(=O)c(C(=O)O)cn4C3CC3)CC2)NC(=O)/C1=C/c1ccc(Cl)cc1 (configuration not stated)	growth	%	99.8
NC(N)=N/N=C/c1ccc(-c2ccc(-c3cc(Cl)cc(Cl)c3)s2)cc1	growth	%	-84.1
COc1cc(C2NN=C3c4ccccc4CCC32)cc(OC)c1OC (configuration not stated)	growth	%	94.7
O=C(Nc1ccncc1)C(=O)c1cn(S(=O)(=O)c2ccc(Oc3ccccc3)cc2)c2ccccc12	growth	%	94
C=C1C(=O)O[C@H]2[C@H]1CC/C(Cn1cc(-c3cccc(Cl)c3)nn1)=C\CC[C@@]1(C)O[C@@H]21	growth	%	-71.1
CCCCOc1ccc(/C=C2/SC(N3CCOCC3)=NC2=O)cc1OCC	growth	%	95.2
N[C@@H]1CCN(C(=O)c2cc3cc(Cl)c(F)c(F)c3[nH]2)C1	growth	%	86.2
Cc1ccc(S(=O)(=O)/C(=C\c2ccc(Cl)cc2)C(=O)c2ccccc2)cc1	growth	%	102
CCc1cnc(=S)n(-c2ccccc2)c1	growth	%	117
COc1ccc(-c2nc(N3CCCC3=O)sc2Br)cc1OC	growth	%	96.7
CC(C)NCCCNC1=C(Cl)C(=O)c2ccccc2C1=O	growth	%	52.9
O=C1Nc2ccc3c(c2/C1=C\c1cc2c(cc1Br)OCO2)OCO3	growth	%	13.4
COc1cccc(/C=C2\Oc3cc(OCCCN4CCCC4)ccc3C2=O)c1OC	growth	%	93.2
CC1=NC2=CC=CC3=NC(C(Cl)(Cl)Cl)=NC(=N1)N23	growth	%	74.3
Nc1nc(=O)c2ccccc2s1	growth	%	111
COc1ccc(OC)c(C2OC(c3ccc4ccccc4c3O)=NN2C(C)=O)c1 (configuration not stated)	growth	%	83.3
CC(C)(C)n1cc(-c2ccnc(NCCNS(=O)(=O)c3ccc(F)cc3)c2)c(-c2cccc(O)c2)n1	growth	%	48.4
COc1cc(NC(N)=NCCC(C)(C)c2ccc(C(F)(F)F)cc2)ncc1C#N	growth	%	-37.4
CC(C)(C)c1[nH]nc2c1C(c1cc3ccccc3[nH]c1=O)Nc1cc(C(=O)Nc3ccc(Cl)cc3)ccc1N2 (configuration not stated)	growth	%	60.5
Cc1ccc(S(=O)(=O)c2nc(-c3ccccc3)oc2S(C)(=O)=O)cc1	growth	%	60.7
COc1ccc(C(=O)NC(=O)Nc2cc3c(cc2F)/C(=C/c2[nH]c(C)c(CCC(=O)O)c2C)C(=O)N3)c(F)c1	growth	%	9.72
COc1ccc(C(=O)c2cc(OC)c3c(c2)OCO3)cc1O	growth	%	27.9
CCc1ccc(-c2ccc(=O)n(-c3ccc(S(N)(=O)=O)cc3)n2)cc1	growth	%	35
COc1ccc(C(=O)N2NC(=O)/C(=C/c3ccccc3F)N=C2c2ccccc2)cc1	growth	%	96.7
S=c1[nH]nc(-c2cc3ccc2CCc2ccc(cc2)CC3)n1-c1ccccc1	growth	%	94.5
Fc1ccc(Nc2ncnc3ccc(-c4cnc5[nH]ccc5c4)cc23)cc1Cl	growth	%	-68.2
COc1cc(C2C3=C(COC3=O)Nc3cc4c(cc32)CCC4)cc2c1OCO2 (configuration not stated)	growth	%	27.5
Oc1ccc(Cl)cc1-c1cc(-c2ccc(F)cc2)n[nH]1	growth	%	63.8
COc1cc(C(=O)/C=C/c2ccc3nc(-c4cc(F)cc(F)c4)sc3c2)cc(OC)c1OC	growth	%	92.5
Nc1cccc(Cl)c1N	growth	%	110
N=c1ccc2nc3ccc(N)cc3sc-2c1	growth	%	6.47
O=[N+]([O-])c1cnc(Sc2ccncn2)s1	growth	%	91.9
C=C1C(=O)O[C@H]2[C@H]1CC/C(COC(=O)NCc1ccccc1OC)=C\CC[C@@]1(C)O[C@@H]21	growth	%	74.8
COc1ccc(-c2nc(SCCC(C)C)nc(Nc3ccc(F)c(Cl)c3)c2C#N)cc1	growth	%	33.7
CCN1C(=O)N(CC)C2C1NN=c1s/c(=C\c3cccnc3)c(=O)n12 (configuration not stated)	growth	%	19.1
COc1cccc(CC(C)=C(c2ccc(OCCN(C)C)cc2)c2ccc(OCCN(C)C)cc2)c1	growth	%	-77.8
Fc1ccc(Nc2nc(NCCNc3ccnc4cc(Cl)ccc34)nc(N3CCOCC3)n2)cc1	growth	%	39
O=S(=O)(NCCCNc1nccc(-n2ccc3cccnc32)n1)c1cccc(C(F)(F)F)c1	growth	%	97.8
